Source listed as patent US8883963B2.

# System Tested: DPP IV (Homo sapiens)
# Sequence (P27487 whole entry, species assumed): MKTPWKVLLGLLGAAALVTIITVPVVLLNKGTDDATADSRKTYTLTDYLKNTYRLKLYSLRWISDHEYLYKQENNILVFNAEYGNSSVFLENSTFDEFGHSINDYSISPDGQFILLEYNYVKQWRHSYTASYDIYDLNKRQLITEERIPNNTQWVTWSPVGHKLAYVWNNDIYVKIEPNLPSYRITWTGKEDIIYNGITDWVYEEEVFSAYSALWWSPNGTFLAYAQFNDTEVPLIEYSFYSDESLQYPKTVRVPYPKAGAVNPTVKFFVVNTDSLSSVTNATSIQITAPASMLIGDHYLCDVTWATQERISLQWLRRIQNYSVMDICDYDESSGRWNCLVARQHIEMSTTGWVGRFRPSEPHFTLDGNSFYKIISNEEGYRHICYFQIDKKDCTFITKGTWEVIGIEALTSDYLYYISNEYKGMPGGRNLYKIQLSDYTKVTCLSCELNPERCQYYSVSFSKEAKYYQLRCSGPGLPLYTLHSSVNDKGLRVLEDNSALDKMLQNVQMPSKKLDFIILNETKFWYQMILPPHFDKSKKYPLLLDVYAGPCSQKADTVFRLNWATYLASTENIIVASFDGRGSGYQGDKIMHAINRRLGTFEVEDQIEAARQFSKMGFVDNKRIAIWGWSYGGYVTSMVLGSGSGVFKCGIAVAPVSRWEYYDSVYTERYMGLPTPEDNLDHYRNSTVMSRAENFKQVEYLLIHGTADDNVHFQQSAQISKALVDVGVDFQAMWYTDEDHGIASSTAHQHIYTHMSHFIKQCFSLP
# Assay Procedure: Stability against DPP IV enzyme
# Assay type: in vitro ADME
# Cond: DPP IV enzyme, pH 7.8, 2 μM peptidomimetic, 37° C., read-out: half-life (t1/2) when incubated with DPP-IV enzyme
Property: half-life at 2 μM

// query Need half-life at 2 μM, item CCc1cc(OC)ccc1-c1ccc(CC(NC(=O)[C@H](CC(=O)O)NC(=O)[C@H](CO)NC(=O)[C@@H](NC(=O)C(C)(Cc2ccccc2F)NC(=O)[C@@H](NC(=O)CNC(=O)C(CCC#N)NC(=O)C(C)(C)NC(=O)[C@@H](N)Cc2c[nH]cn2)[C@H](C)O)[C@H](C)O)C(=O)NC(CCCc2ccccc2F)C(N)=O)cc1 (single isomer, unassigned)
// result > 24 h

// query Need half-life at 2 μM, item CCc1cc(OC)ccc1-c1ccc(CC(C(=O)N(C)C(CCCc2ccccc2F)C(N)=O)N(C)C(=O)[C@H](CC(=O)O)NC(=O)[C@H](CO)NC(=O)[C@@H](NC(=O)C(C)(Cc2ccccc2F)NC(=O)[C@@H](NC(=O)CNC(=O)C(CCC#N)NC(=O)C(C)(C)NC(=O)[C@@H](N)Cc2c[nH]cn2)[C@H](C)O)[C@H](C)O)cc1 (single isomer, unassigned)
// result 9 h

// query Need half-life at 2 μM, item CCc1cc(OC)ccc1-c1ccc(CC(NC(=O)[C@H](CC(=O)O)NC(=O)[C@H](CO)NC(=O)[C@@H](NC(=O)C(C)(Cc2ccccc2F)NC(=O)[C@@H](NC(=O)CNC(=O)C(CCC#N)NC(=O)C(C)(C)NC(=O)[C@@H](N)Cc2c[nH]cn2)[C@H](C)O)[C@@H](C)O)C(=O)NC(CCCc2ccccc2F)C(N)=O)cc1 (single isomer, unassigned)
// result > 24 h

// query Need half-life at 2 μM, item CCc1cc(OC)ccc1-c1ccc(CC(NC(=S)[C@H](CC(=O)O)NC(=O)[C@H](CO)NC(=O)[C@@H](NC(=O)C(C)(Cc2ccccc2F)NC(=O)[C@@H](NC(=O)CNC(=O)C(CCC#N)NC(=O)C(C)(C)NC(=O)[C@@H](N)Cc2c[nH]cn2)[C@H](C)O)[C@H](C)O)C(=S)NC(CCCc2ccccc2F)C(N)=O)cc1 (single isomer, unassigned)
// result > 24 h
